Recorded values, source ChEMBL document CHEMBL1145498.

- tgt: Serine/threonine-protein kinase Nek2 (Homo sapiens)
// values below are reported ΔTm
assay_endpoint: ΔTm (°C)

1. O=C1Nc2ccccc2/C1=C1/Nc2ccccc2/C1=N\O	2.8
2. Cc1c2ccncc2c(C)c2c1[nH]c1ccccc12 [ELLIPTECINE]	0.5
3. NCCNS(=O)(=O)c1cccc2c(Cl)cccc12	0.7
4. CC(C)(C)n1nc(-c2cccc3ccccc23)c2c(N)ncnc21	-0.2
5. COc1cc(/C=C/C(=O)CC(=O)/C=C/c2ccc(O)c(OC)c2)ccc1O [CURCUMIN]	1.1
6. c1ccc(-c2n[nH]c3c2oc2ccccc23)cc1	0.1
7. O=C1Nc2ccc(I)cc2/C1=C\c1cc(Br)c(O)c(Br)c1	-2.2
8. O=C1NC(=O)C(c2c[nH]c3ccccc23)=C1c1c[nH]c2ccccc12	1.9
9. CC(C)c1cc(/C=C(\C#N)C(=O)NCCCc2ccccc2)cc(C(C)C)c1O	2.1
10. COC(=O)[C@]1(O)C[C@@H]2O[C@@]1(C)n1c3ccccc3c3c4c(c5c6ccccc6n2c5c31)C(=O)NC4 (single isomer, unassigned)	1.9
11. Cl.Cn1cc(C2=C(c3ccc4cc5n(c4c3)CCC(CN)C5)C(=O)NC2=O)c2ccccc21 (stereo unspecified)	1.1

* * *

Measured ΔTm of individual entries
- tgt: Calcium/calmodulin-dependent protein kinase type II subunit beta (Homo sapiens) (UniProt Q13554)
- Sequence (Q13554 whole entry): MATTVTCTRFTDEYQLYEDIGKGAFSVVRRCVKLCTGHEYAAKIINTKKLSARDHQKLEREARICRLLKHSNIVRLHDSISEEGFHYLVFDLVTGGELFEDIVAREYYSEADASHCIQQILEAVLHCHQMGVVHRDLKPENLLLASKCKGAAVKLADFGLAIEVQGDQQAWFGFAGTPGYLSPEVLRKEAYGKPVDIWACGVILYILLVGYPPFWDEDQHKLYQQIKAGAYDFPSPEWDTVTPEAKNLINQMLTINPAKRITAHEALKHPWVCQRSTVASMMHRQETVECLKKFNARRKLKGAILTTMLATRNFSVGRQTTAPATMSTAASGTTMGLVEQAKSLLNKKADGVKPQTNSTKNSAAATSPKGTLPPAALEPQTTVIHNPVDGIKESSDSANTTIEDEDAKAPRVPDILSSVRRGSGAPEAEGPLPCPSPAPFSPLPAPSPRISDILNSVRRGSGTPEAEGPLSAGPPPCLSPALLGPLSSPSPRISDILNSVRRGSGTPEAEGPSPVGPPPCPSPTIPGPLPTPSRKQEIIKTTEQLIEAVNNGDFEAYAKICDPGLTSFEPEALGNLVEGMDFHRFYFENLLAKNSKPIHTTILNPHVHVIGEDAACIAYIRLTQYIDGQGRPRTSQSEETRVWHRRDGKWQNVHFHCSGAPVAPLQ
assay_endpoint: ΔTm (°C)

1. O=c1cc(N2CCOCC2)oc2c1ccc1ccccc12	0.3
2. O=S(=O)(c1cccc2c(Cl)cccc12)N1CCCNCC1	0.3
3. CCOC(=O)c1c(C)[nH]c(/C=C2\C(=O)Nc3ccccc32)c1C	0.7
4. COc1cc(C[C@H]2C(=O)OC[C@@H]2Cc2ccc(OC)c(OC)c2)ccc1O	0.6
5. Nc1cc2ncnc(Nc3cccc(Br)c3)c2cc1N	-0.4
6. O=[N+]([O-])c1ccc(-c2nc(-c3ccc(F)cc3)c(-c3ccncc3)[nH]2)cc1	-0.5
7. O=c1c(-c2ccc(O)cc2)coc2cc(O)cc(O)c12	1.2
8. O=C1NC(=O)c2c1c1c3ccccc3[nH]c1n1cncc21 [ISOGRANULATIMIDE]	1.2
9. NC(=O)c1ccc2[nH]c(-c3ccc(Oc4ccc(Cl)cc4)cc3)nc2c1	0.5
10. COc1cc2ncnc(Nc3cccc(Br)c3)c2cc1OC	0
11. Cn1cnc2c(NCc3ccccc3)nc(NCCO)nc21	0.2
12. COc1cc(/C=C/C(=O)CC(=O)/C=C/c2ccc(O)c(OC)c2)ccc1O	1
13. CN(C)C[C@@H]1CCn2cc(c3ccccc32)C2=C(C(=O)NC2=O)c2cn(c3ccccc23)CCO1	0.5
14. CN(C)CC1CCn2c(c(C3=C(c4c[nH]c5ccccc45)C(=O)NC3=O)c3ccccc32)C1 (centres undefined)	1
15. COc1cc(O)c2c(c1)oc(=O)c1c3cc(O)c(O)cc3oc21	0.7
16. Nc1n[nH]c2nc3ccccc3nc12	0.3
17. Oc1ccc(-c2nc(-c3ccc(F)cc3)c(-c3ccncc3)[nH]2)cc1	0.1
18. C=CNC#N	1.2
19. Cc1cncc2cccc(S(=O)(=O)N3CCCNC[C@@H]3C)c12	1.1
20. O=C1Nc2ccccc2/C1=C1/Nc2ccccc2/C1=N\O	2.1
21. CC(=O)O/N=C1/C(=C2/C(=O)Nc3cc(Br)ccc32)Nc2ccccc21	0.9
22. CCOc1cc(/C=C(\C#N)C(N)=O)cc(CSc2ccccc2)c1O	-0.2
23. CN1CCC(Nc2ncc3ncnc(Nc4ccc(F)c(Cl)c4)c3n2)CC1	-0.4
24. CN(C)c1ccc(CC2C(=O)Nc3ccccc32)cc1 (centres undefined)	0.4
25. CC(C)n1cnc2c(NCc3ccccc3)nc(NCCCO)nc21	0.1
26. NCCNS(=O)(=O)c1cccc2c(Cl)cccc12	0.4
27. NS(=O)(=O)c1ccc(Nc2nc(OCC3CCCCC3)c3nc[nH]c3n2)cc1	0.6
28. COC(=O)[C@]1(O)C[C@@H]2O[C@@]1(C)n1c3ccccc3c3c4c(c5c6ccccc6n2c5c31)C(=O)NC4 (single isomer, unassigned)	2.7
29. CCN(CC)CCNC(=O)c1c(C)[nH]c(/C=C2\C(=O)Nc3ccc(Cl)cc32)c1C	2.8
30. COc1ccc(Cl)cc1NC(=O)Nc1cc(C)nc2ccccc12	0.3
31. O=C1Nc2ccccc2/C1=C/c1cnc[nH]1	0.8
32. COc1cc2ncnc(Nc3ccc(NC(=O)c4ccccc4)cc3)c2cc1OC	0.3
33. Cc1cc(Nc2nc(-c3ccccc3)nc3ccccc23)n[nH]1	0.6
34. O=C1C=C2C(=Nc3c2c2c(c4c3=NC3=C4CCC=C3)C=NC=2)CC1	0.1

* * *

- tgt: Dual specificity mitogen-activated protein kinase kinase 2 (Homo sapiens, UniProt P36507)
- Sequence (P36507 whole entry): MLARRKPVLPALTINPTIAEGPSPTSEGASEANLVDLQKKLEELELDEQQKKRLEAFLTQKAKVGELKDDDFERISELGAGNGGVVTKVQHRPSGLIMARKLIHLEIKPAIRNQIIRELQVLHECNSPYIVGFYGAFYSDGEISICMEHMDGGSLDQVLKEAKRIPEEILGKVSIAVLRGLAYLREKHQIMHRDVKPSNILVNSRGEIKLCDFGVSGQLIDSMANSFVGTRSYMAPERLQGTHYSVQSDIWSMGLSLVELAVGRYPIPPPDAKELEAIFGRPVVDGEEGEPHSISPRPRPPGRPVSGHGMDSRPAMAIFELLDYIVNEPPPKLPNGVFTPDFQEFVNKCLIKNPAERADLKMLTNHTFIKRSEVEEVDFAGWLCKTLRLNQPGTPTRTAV
Label Criterion met when ΔTm >= -0.3 °C; otherwise Criterion not met.

1. O=C(Nc1cccc(Nc2cc(Nc3cccc(C(F)(F)F)c3)ncn2)c1)C1CC1	Criterion met
2. Cc1cc(C=C2C(=O)C=CC2=O)cc(C)c1O	Criterion not met
3. COc1cc2ncnc(Nc3cccc(O)c3)c2cc1OC	Criterion met
4. CC(C)n1cnc2/c(=N/c3cccc(Cl)c3)nc(NCCO)[nH]c21	Criterion met
5. CC(C)c1nn(-c2c(Cl)cccc2Cl)c2nc(Cc3ccc(OCCO)cc3)[nH]c(=O)c12	Criterion met
6. CC(C)(C)c1cc(C=C2C(=O)C=CC2=O)cc(C(C)(C)C)c1O	Criterion not met
7. COc1ccc(CNC(=O)Nc2ncc([N+](=O)[O-])s2)cc1	Criterion not met

* * *

Form: system (Serine/threonine-protein kinase PAK 4 (Homo sapiens) (UniProt O96013)), quantity (ΔTm), values below.
assay_endpoint: ΔTm (°C)

1. Oc1cc(O)cc(/C=C/c2ccc(O)c(O)c2)c1 [PICEATANNOL]	1.5
2. O=c1sn(Cc2ccccc2)c(=S)n1Cc1ccccc1	1.2
3. CCOc1cc(/C=C(\C#N)C(N)=O)cc(CSc2ccccc2)c1O	-0.5
4. O=C1C=C2C(=Nc3c2c2c(c4c3=NC3=C4CCC=C3)C=NC=2)CC1	3.8
5. CCOc1ccc(/C=C2/SC(=O)N(CCN)C2=O)cc1 [HIAZOLIDINEDIONE1]	0.6
6. Nc1ncnc2c1c(I)cn2[C@@H]1O[C@H](CO)[C@@H](O)[C@H]1O	1.1
7. CCOC(=O)c1cnc2oc3ccc(O)cc3c2c1-c1ccccc1	0.7
8. COc1cc(C[C@H]2C(=O)OC[C@@H]2Cc2ccc(OC)c(OC)c2)ccc1O [ARCTIGENIN]	0.8

* * *

- tgt: Serine/threonine-protein kinase VRK1 (Homo sapiens) (UniProt Q99986)
- Sequence (Q99986 whole entry): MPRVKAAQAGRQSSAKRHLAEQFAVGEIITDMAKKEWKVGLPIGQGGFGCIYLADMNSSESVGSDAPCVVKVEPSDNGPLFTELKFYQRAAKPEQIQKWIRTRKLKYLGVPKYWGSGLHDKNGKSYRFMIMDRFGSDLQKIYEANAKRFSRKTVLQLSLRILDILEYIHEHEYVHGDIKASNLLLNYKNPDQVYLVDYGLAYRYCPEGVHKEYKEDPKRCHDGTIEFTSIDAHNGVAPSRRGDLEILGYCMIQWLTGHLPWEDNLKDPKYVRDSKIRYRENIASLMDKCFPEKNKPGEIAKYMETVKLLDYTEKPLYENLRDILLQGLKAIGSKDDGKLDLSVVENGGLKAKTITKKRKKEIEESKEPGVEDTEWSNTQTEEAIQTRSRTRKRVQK
Classification field. Basis: ΔTm. Definitions: one (below 0 °C), two (0 °C to below 0.8 °C), three (0.8 °C or more)

1) O=C1Nc2ccccc2/C1=C/c1cnc[nH]1	two
2) O=C1c2ccccc2-[n+]2ccc3c([nH]c4ccccc43)c21 [FASCAPLYSIN CHLORIDE]	one
3) COc1ccc(CNc2nc(N(CCO)CCO)nc3c2ncn3C(C)C)cc1	two
4) CSc1nc(-c2ccc(F)cc2)c(-c2ccnc(NC(C)c3ccccc3)c2)[nH]1 (racemic)	three
5) NC1=NC(=O)/C(=C2\CCNC(=O)c3[nH]c(Br)cc32)N1 [HYMENIALDISINE]	three
6) CN(C)S(=O)(=O)c1ccc2c(c1)/C(=C/c1cc3c([nH]1)CCCC3)C(=O)N2	two
7) Nc1nccc(-c2c(-c3ccc(F)cc3)ncn2C2CCNCC2)n1	three
8) C[S+]([O-])c1ccc(CSc2nc(-c3ccc(F)cc3)c(-c3ccncc3)[nH]2)cc1 (stereo not given)	one
9) CN[C@@H]1CC2O[C@@](C)([C@@H]1OC)n1c3ccccc3c3c4c(c5c6ccccc6n2c5c31)C(=O)NC4	three
10) O=c1c2ccccc2[nH]c(=S)n1CCN1CCC(=C(c2ccc(F)cc2)c2ccc(F)cc2)CC1 [DIACYLGLYCEROL KINASE INHIBITOR II]	one
11) Nc1cc2ncnc(Nc3cccc(Br)c3)c2cc1N	one

* * *

- tgt: Serine/threonine-protein kinase VRK2 (Homo sapiens)
# ΔTm >= 0.4 °C gives Satisfied, anything below gives Not satisfied

1. CN(C)C[C@@H]1CCn2cc(c3ccccc32)C2=C(C(=O)NC2=O)c2cn(c3ccccc23)CCO1	Satisfied
2. NC1=N/C(=C2/CCNC(=O)c3[nH]ccc32)C(=O)N1	Satisfied
3. CCCCc1c(-c2ccc(O)cc2)[nH]c2nccnc12	Satisfied
4. C#Cc1cccc(Nc2ncnc3cc(OCCOC)c(OCCOC)cc23)c1	Satisfied
5. COc1cc(OC)c(/C=C2\C(=O)Nc3ccccc32)c(OC)c1	Satisfied
6. CC(C)(C)n1nc(-c2cccc3ccccc23)c2c(N)ncnc21	Satisfied
7. COc1cc2ncnc(Nc3ccc(F)c(Cl)c3)c2cc1OCCCN1CCOCC1	Not satisfied
8. Cc1nc2sccn2c(=O)c1CCN1CCC(=C(c2ccccc2)c2ccc(F)cc2)CC1	Not satisfied
9. O=S(=O)(c1cccc2c(Cl)cccc12)N1CCCNCC1	Not satisfied
10. O=C1C=C2C(=Nc3c2c2c(c4c3=NC3=C4CCC=C3)C=NC=2)CC1	Satisfied
11. CC(C)(C)c1nc2c3ccc(F)cc3c3c(=O)[nH]ccc3c2[nH]1	Satisfied
12. O=C1Nc2ccc(I)cc2/C1=C\c1cc(Br)c(O)c(Br)c1	Satisfied
13. CCOc1cc(/C=C(\C#N)C(N)=O)cc(CSc2ccccc2)c1O	Not satisfied
14. CCOC(=O)c1cnc2oc3ccc(O)cc3c2c1-c1ccccc1	Not satisfied
15. Cn1cnc2c(NCc3ccccc3)nc(NCCO)nc21	Not satisfied
16. N#C/C(=C1/Nc2ccccc2S1)c1ccnc(NCCc2cccnc2)n1	Satisfied
17. Cc1ccc(NC(=O)c2ccc(CN3CCN(C)CC3)cc2)cc1Nc1nccc(-c2cccnc2)n1	Satisfied
18. COc1cc(C[C@H]2C(=O)OC[C@@H]2Cc2ccc(OC)c(OC)c2)ccc1O	Satisfied
